- test.details: in vivo
- experimental.parameters: both sexes, ICR, mouse, in vivo, po, mice, single intragastric administration, observed within 7 days; read-out: Mouse acute toxicity LD50 (median lethal dose)
quantity.name: LD50 at 7 days (mg/kg)

INSERT INTO results (compound, quantity_name, result_number) VALUES
  ('CNCCC(Oc1cccc2c1OCO2)c1ccccc1.Cl (stereo not shown)', 'LD50 at 7 days', 112);

* * *

Catalogue of molecules with associated LD50 at 7 days
- test.details: in vivo
- experimental.parameters: both sexes, ICR, mouse, in vivo, po, 95% confidence interval of LD50
quantity.name: LD50 at 7 days

INSERT INTO measurements (molecule, quantity_name, result) VALUES
  ('CNCC[C@H](Oc1cccc2c1OCO2)c1ccccc1.Cl', 'LD50 at 7 days', '13.1 to 91.3 mg/kg'),
  ('CNCC[C@@H](Oc1cccc2c1OCO2)c1ccccc1.Cl [Compound of formula I]', 'LD50 at 7 days', '106 to 125 mg/kg');

* * *

- test.details: Pharmacokinetic assay in beagle dogs
- experimental.parameters: both, dog, in vivo, po, 1 mg/kg, Cmax, beagle dogs, oral (capsule), mean
quantity.name: Cmax (ng/mL)

INSERT INTO assay_data (molecule, result_number) VALUES
  ('CNCCC(Oc1cccc2c1OCO2)c1ccccc1.O=C(O)C(=O)O (stereo not shown)', 23.7);

* * *

- test.details: in vivo
- experimental.parameters: both, beagle, dog, iv, 0.3 mg/kg, AUC(0-∞)
quantity.name: AUC(0-inf) (ng·h/mL)

INSERT INTO measurements (item_smiles, quantity_name, result_number) VALUES
  ('CNCC[C@@H](Oc1cccc2c1OCO2)c1ccccc1.Cl', 'AUC(0-inf)', 119);

* * *

- test.details: in vivo
- experimental.parameters: both, beagle, dog, po, 1 mg/kg, AUC(0-∞)
quantity.name: AUC(0-inf) (ng·h/mL)

INSERT INTO assay_data (item_smiles, u, result_number) VALUES
  ('CNCC[C@@H](Oc1cccc2c1OCO2)c1ccccc1.Cl', 'ng·h/mL', 102);

* * *

- test.details: Pharmacokinetic assay in beagle dogs
- experimental.parameters: both, dog, in vivo, po, 1 mg/kg, Tmax, beagle dogs, oral (capsule), mean
quantity.name: Tmax (h)

INSERT INTO assay_data (compound, quantity_name, result_number) VALUES
  ('CNCCC(Oc1cccc2c1OCO2)c1ccccc1.O=C(O)C(=O)O (stereo not shown)', 'Tmax', 1.43);

* * *

- test.details: in vivo
- experimental.parameters: both, beagle, dog, iv, 0.3 mg/kg, Cmax
quantity.name: Cmax (ng/mL)

INSERT INTO measurements (compound, quantity_name, result_number) VALUES
  ('CNCC[C@@H](Oc1cccc2c1OCO2)c1ccccc1.Cl [Compound of formula I]', 'Cmax', 80.4);

* * *

- test.details: in vivo
- experimental.parameters: both, beagle, dog, po, 1 mg/kg, t1/2
quantity.name: half-life (h)

INSERT INTO measurements (item_smiles, quantity_name, u, result_number) VALUES
  ('CNCC[C@@H](Oc1cccc2c1OCO2)c1ccccc1.Cl', 'half-life', 'h', 2.36);

* * *

- test.details: Pharmacokinetic assay in beagle dogs
- experimental.parameters: both, dog, in vivo, po, 1 mg/kg, t1/2, beagle dogs, oral (capsule), mean
quantity.name: half-life

INSERT INTO results (molecule, quantity_name, result) VALUES
  ('CNCCC(Oc1cccc2c1OCO2)c1ccccc1.O=C(O)C(=O)O (stereo not shown)', 'half-life', '1.98 h');
